Tested on: Escherichia coli TOP10;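 also: peptides expressed intracellularly from a pBAD plasmid library in pooled LB shake-flask culture, induced with 0.3% L-arabinose, DNA abundance read by NGS, three biological replicates, DESeq2 with apeglm shrinkage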
Assay: shrunken log2 fold change of peptide-encoding DNA abundance (4.5 h post-induction vs induction); higher = less antimicrobial activity (less host growth inhibition)
Conditions: time post-induction: 4.5 h; library: site-saturation at positions 5, 18, 19, 20
Classify as follows. Reported shrunken log2 fold change greater than or equal to -0.002: TRUE. Reported shrunken log2 fold change below: FALSE.

| item sequence | experimental target | assigned category |
| --- | --- | --- |
| RRIRLRPPRLPRPRPRPFLHPRP | Escherichia coli TOP10 | FALSE |
| RRIRMRPPRLPRPRPRPQGDPRP | Escherichia coli TOP10 | FALSE |
| RRIRVRPPRLPRPRPRPWLNPRP | Escherichia coli TOP10 | FALSE |
| RRIRPRPPRLPRPRPRPDQGPRP | Escherichia coli TOP10 | TRUE |

(Q) Exam item: decide whether the reported shrunken log2 fold change for RRIRCRPPRLPRPRPRPAHIPRP is at least -0.002.
(A) FALSE

(Q) Exam item: decide whether the reported shrunken log2 fold change for RRIRHRPPRLPRPRPRPPFFPRP is at least -0.002.
(A) TRUE

(Q) Exam item: decide whether the reported shrunken log2 fold change for RRIRKRPPRLPRPRPRPNSPPRP is at least -0.002.
(A) FALSE

(Q) Exam item: decide whether the reported shrunken log2 fold change for RRIRQRPPRLPRPRPRPTLQPRP is at least -0.002.
(A) TRUE

(Q) Exam item: decide whether the reported shrunken log2 fold change for RRIRKRPPRLPRPRPRPPPNPRP is at least -0.002.
(A) TRUE
